// values below are reported GI50
- Tested on: HOP-92
- Test details: NCI tumour cell line growth inhibition, 48 h
Activity calls are given as the source filed them. Rule as the data show it: active = GI50 up to about 1.1 µM and inactive = higher.

- Compound: "COc1ccc2c(c1)C=C(C(C)(C)C)NS2(=O)=O"
  GI50: "> 100 µM (inactive)"
- Compound: "C[C@H](NC(=O)n1c2ccccc2c2ccccc21)C(=O)O"
  GI50: "> 100 µM (inactive)"
- Compound: "CCOC(=O)c1nc2ccccc2nc1Oc1cc(OC)cc(OC)c1"
  GI50: "6.81 µM (inactive)"
- Compound: "COc1ccc(CC2c3cc(Oc4cc(CC5c6cc(OC)c(OC)cc6CCN5C)ccc4O)c(OC)cc3CCN2C)cc1 (stereo not given)"
  GI50: "7.41 µM (inactive)"
- Compound: "COc1cc(C2c3cc4c(cc3CC3COC(=O)N32)OCO4)cc(OC)c1OC (stereo not given)"
  GI50: "14.1 µM (inactive)"
- Compound: "CC1CC[P+](c2ccccc2)(c2ccccc2)c2c1ccc1ccccc21 (stereo not given)"
  GI50: "1.15 µM (inactive)"
- Compound: "CC(=O)Nc1ccccc1SCCSSCCSc1ccccc1NC(C)=O"
  GI50: "17.5 µM (inactive)"
- Compound: "CN1CCN(Cc2cc3c(nn2)-c2ccccc2C3=O)CC1"
  GI50: "> 100 µM (inactive)"

Value of GI50 reported for the compound CCOC(=O)CCC(NC(=O)OCc1ccccc1)C(=O)NC(CCC(=O)OCC)C(=O)NNC(=O)OC(C)(C)C (stereo not given) is > 100 µM (inactive)

Looking up C[C@H](C(=O)C12CC3CC(CC(C3)C1)C2)[C@H](O)c1ccccc1 , I see its GI50 listed as 21.9 µM (inactive)

###

Reported GI50 by item:
- Test system: T47D
- Test details: NCI tumour cell line growth inhibition, 48 h
Activity calls are given as the source filed them. Cut-off read from the data, not from the text of the source: active = GI50 up to about 1.1 µM and inactive = higher.

What the record says about O=c1c2cc(S(=O)(=O)O)ccc2nc(COc2ccc(Oc3ccc(Cl)cc3Cl)cc2)n1-c1ccc(Oc2ccc(Cl)cc2)cc1Cl : GI50 is 33.1 µM (inactive)

Memo: CC1(C)C2CCC1(C)C(OC(=O)/C=C/C(=O)OC1CC3CCC1(C)C3(C)C)C2 (stereo not given) , reported GI50: > 100 µM (inactive)

Input CC(SCc1ccccc1)C(=O)O (stereo not given) . Output GI50: > 100 µM (inactive)

So, CCCN(CCC)C(=O)c1c(Cl)c2cccnc2n2c(C)cnc12 ? Its GI50 was 11.7 µM (inactive)

Kindly note the recorded GI50 for COc1ccc(CC2c3cc(Oc4cc(CC5c6cc(OC)c(OC)cc6CCN5C)ccc4O)c(OC)cc3CCN2C)cc1 (stereo not given) , which is 6.43 µM (inactive)

###

- Test system: 786-0
- Test details: NCI tumour cell line growth inhibition, 48 h
The source made the active and inactive calls. Rule as the data show it: active = GI50 up to about 1.1 µM and inactive = higher.
Mark one answer only. Choices: active, inactive

Below, 2 compounds whose answers are already recorded.
- Compound: "Cc1ccc(-c2nc(Cc3n[nH]c(-c4ccc(C)cc4)n3)n[nH]2)cc1"
  Classification: "inactive"
- Compound: "NC(=O)NN=C1Cc2ccccc2C1"
  Classification: "inactive"

Field: outcome | Entry: Cc1nn(C(=O)Cc2ccccc2)c2c1C(c1ccccc1[N+](=O)[O-])SC(=N)N2 (stereo unspecified)
inactive

What classification did O=C1CCc2cc3c(cc21)C(C(=O)O)CC3 (stereo unspecified) end up with in this test?
inactive

Please state the recorded outcome for this compound: CC(C)=C1CCC(CN2CCCC2)C1=O (stereo unspecified)
inactive

I'd appreciate the recorded outcome for Cc1cccc2nc3cccc(C(=O)NCCN(C)C)c3nc12 from this test.
active

Could you check what this test reported for CC(=O)OCC1OC(n2cc(F)c(=O)[nH]c2=O)C(NC(=O)N(CCCl)N=O)C(OC(C)=O)C1OC(C)=O (stereo unspecified) ?
inactive
